# procedure.summary: Clearance in CD-1 mouse at 25 nmol, iv measured upto 480 mins by UV-Vis spectrophotometer method
# Type: ADME, organism-based
# test.conditions: in vivo
For each record, write down the corresponding clearance.
Express the result in mL/min/kg but write the number alone.

Recorded clearance (compound CC1(C)C(/C=C/C2=C(Cl)C(=C/C=C3/N(CCCCCC(=O)O)c4ccc(I)cc4C3(C)C)/C[N+](C)(C)C2)=[N+](CCCCCC(=O)O)c2ccc(I)cc21 ): 5

Entry CC1(C)C(/C=C/C2=C(Cl)C(=C/C=C3/N(CCCCCC(=O)O)c4ccc(I)cc4C3(C)C)/CCC2)=[N+](CCCCCC(=O)O)c2ccc(I)cc21 ; clearance = 0.2
